# Tested on: A549 cells
# PROCEDURE_SUMMARY: cells
# Type: cell-based, human
# EXPERIMENTAL_PARAMETERS: Homo sapiens, A549, 48 h, read-out: GI50 (nM) 48 h
# Source text: Methods are essentially as described above in the General Methods section in connection with assays using HCT-116 cells.

COMPOUND	GI50
COc1ccc(C(=O)OC2C(OC3C(O)COC(O[C@H]4C[C@H]5[C@@H]6CC=C7C[C@@H](O[Si](C)(C)C(C)(C)C)CC[C@]7(C)C6CC[C@]5(C)[C@@]4(O)[C@H](C)C(=O)CCC(C)C)C3OC(C)=O)OCC(O)C2O)cc1 (some centres unmarked)	1600 nM
C=CCOC(=O)NCc1ccc(CNC(=O)OC2C(O)COC(OC3C(O)COC(O[C@H]4C[C@H]5[C@@H]6CC=C7C[C@@H](O)CC[C@]7(C)C6CC[C@]5(C)[C@@]4(O)[C@H](C)C(=O)CCC(C)C)C3OC(C)=O)C2OC(=O)c2ccc(OC)cc2)cc1 (some centres unmarked)	0.1 nM
CC(=O)OC1C(O[C@H]2C[C@H]3[C@@H]4CC=C5C[C@@H](O)CC[C@]5(C)C4CC[C@]3(C)[C@@]2(O)[C@H](C)C(=O)CCC(C)C)OCC(O)C1OC1OCC(O)C(O)C1O (some centres unmarked)	41 nM
C=CCOC(=O)NCc1ccc(CNC(=O)OC2COC(OC3C(O)COC(O[C@H]4C[C@H]5[C@@H]6CC=C7C[C@@H](O)CC[C@]7(C)C6CC[C@]5(C)[C@@]4(O)[C@H](C)C(=O)CCC(C)C)C3OC(C)=O)C(OC(=O)c3ccc(OC)cc3)C2O)cc1 (some centres unmarked)	2.9 nM
CC(C)CCC(=O)[C@@H](C)[C@@]1(O)[C@@H](OC2OCC(O)C(OC3OCC(O)C(O)C3O)C2O)C[C@H]2[C@@H]3CC=C4C[C@@H](O)CC[C@]4(C)C3CC[C@@]21C (some centres unmarked)	570 nM
